Target: NK3 (Homo sapiens, UniProt P29371)
Assay: Signal transduction (ST), intracellular Ca++ (FLIPR), NK3
Assay type: cell-based
Details: read-out: pIC50 NK3 (converted)
measuredMetric: IC50 (µM)

1. CC(C)(C)OC(=O)N1CCC(N2CCN(C3CCN(C(=O)c4cc(C(F)(F)F)cc(C(F)(F)F)c4)C(Cc4ccccc4)C3)CC2)C1 (stereo not drawn)
2. Cc1cc(C(=O)N2CCC(N3CCN([C@H]4CCN(C(=O)c5cc(C(F)(F)F)cc(C(F)(F)F)c5)[C@H](Cc5ccccc5)C4)CC3)C2)n(C(C)(C)C)n1 (stereo partly drawn)
3. CN(C)CC(=O)N1CCC(N2CCN([C@H]3CCN(C(=O)c4cc(C(F)(F)F)cc(C(F)(F)F)c4)[C@H](Cc4ccccc4)C3)CC2)C1 (stereo partly drawn)
Task: Hello, I need these entries ordered by IC50, highest reading first. Thanks! The reply should contain the labels ordered as requested.
Result: 3, 1, 2
(3: 6.31 µM, 1: 3.16 µM, 2: 0.316 µM)

* * *

Molecular target: NK3 (Homo sapiens)
Sequence (P29371 1-465): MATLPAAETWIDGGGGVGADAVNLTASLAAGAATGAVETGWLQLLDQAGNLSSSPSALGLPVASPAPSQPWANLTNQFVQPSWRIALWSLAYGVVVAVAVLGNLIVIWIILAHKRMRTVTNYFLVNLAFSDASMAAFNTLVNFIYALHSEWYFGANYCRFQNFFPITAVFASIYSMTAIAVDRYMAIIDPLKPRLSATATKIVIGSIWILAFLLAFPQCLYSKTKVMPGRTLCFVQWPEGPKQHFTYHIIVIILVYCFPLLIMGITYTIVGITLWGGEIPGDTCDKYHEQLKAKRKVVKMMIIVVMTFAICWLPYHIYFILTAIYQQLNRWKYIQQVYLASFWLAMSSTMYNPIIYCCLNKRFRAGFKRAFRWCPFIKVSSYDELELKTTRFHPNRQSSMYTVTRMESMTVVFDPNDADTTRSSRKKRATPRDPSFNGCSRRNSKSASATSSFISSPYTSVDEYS
Assay: Signal transduction (ST), intracellular Ca++ (FLIPR), NK3
Type: cell-based
Conditions: read-out: pIC50 NK3 (converted)
measuredMetric: IC50 (nM)

See these solved cases before continuing.
molecule	quantitativeResult
O=C(c1cc(C(F)(F)F)cc(C(F)(F)F)c1)N1CC[C@H](N2CCN([C@H]3CCN(C(=O)n4ccnc4)C3)CC2)C[C@H]1Cc1ccc(Cl)c(Cl)c1	398
O=C(Cc1cccs1)N1CCC(N2CCN([C@H]3CCN(C(=O)c4cc(C(F)(F)F)cc(C(F)(F)F)c4)[C@H](Cc4ccccc4)C3)CC2)C1 (some centres unmarked)	1000

1. O=C(C1CCOC1)N1CCC(N2CCN(C3CCN(C(=O)c4cc(C(F)(F)F)cc(C(F)(F)F)c4)C(Cc4ccc(F)cc4)C3)CC2)C1 (centres unmarked)
2. COCC(=O)N1CCC(N2CCN(C3CCN(C(=O)c4cc(C(F)(F)F)cc(C(F)(F)F)c4)C(Cc4ccccc4)C3)CC2)C1 (centres unmarked)
Task: Between 1 and 2 , whose recorded IC50 is greater? # answer = label of selected item
Result: 1
(1: 3980 nM, 2: 2510 nM)

1. Cc1noc(C)c1C(=O)N1CCC(N2CCN([C@H]3CCN(C(=O)c4cc(C(F)(F)F)cc(C(F)(F)F)c4)[C@H](Cc4ccccc4)C3)CC2)C1 (some centres unmarked)
2. CC(C)(C)OC(=O)N1CCC(N2CCN(C3CCN(C(=O)c4cc(C(F)(F)F)cc(C(F)(F)F)c4)C(Cc4ccc(Cl)c(Cl)c4)C3)CC2)C1 (single isomer, unassigned)
3. Cn1cccc1C(=O)N1CCC(N2CCN(C3CCN(C(=O)c4cc(C(F)(F)F)cc(C(F)(F)F)c4)C(Cc4ccc(F)c(F)c4)C3)CC2)C1 (single isomer, unassigned) [Compound 366]
4. O=C(c1ccoc1)N1CCC(N2CCN(C3CCN(C(=O)c4cc(C(F)(F)F)cc(C(F)(F)F)c4)C(Cc4ccccc4)C3)CC2)C1 (single isomer, unassigned) [Compound 138]
5. O=C(c1c(Cl)cccc1Cl)N1CCC(N2CCN(C3CCN(C(=O)c4cc(C(F)(F)F)cc(C(F)(F)F)c4)C(Cc4ccc(F)c(F)c4)C3)CC2)C1 (single isomer, unassigned) [Compound 239]
Task: List the 5 entries from lowest IC50 to highest IC50 value. The reply should contain the labels ordered as requested.
Result: 3, 5, 2, 1, 4
